# Test system: Caco-2 cells
# Experiment Notes: Caco-2 permeability study with or without P-gp inhibitor GF120918
# Test Parameters: −GF120918, 10 μM compound, 1 hr, pH 7.4
Where a SMILES comes first, the peptide text is derived from it. [ ]: non-standard residue; d: D form. The star is where a group is joined. ξ: configuration not given here. ξpY = NC(Cc1ccc(OP(=O)(O)O)cc1)C(=O)O; Ile(3ξ) = CCC(C)[C@H](N)C(=O)O; Hexanoyl = CCCCCC(=O)*; Ahx = NCCCCCC(=O)O
Tag: Condition met if measured Caco-2 Cells Permeability Recovery Rate is not below 80%, Condition not met if it is.

Ask | Determine whether measured Caco-2 Cells Permeability Recovery Rate meets or exceeds 80% for CCCCCC(=O)NC(Cc1ccc(OC(=O)CN(C)C)cc1)C(=O)NC(C(=O)NCCCCCC(N)=O)C(C)CC (stereo not drawn)
Reply | Condition met

Ask | Reported Caco-2 Cells Permeability Recovery Rate reaches at least 80% for CCCCCC(=O)NC(Cc1ccc(OC(=O)C(N)C(C)C)cc1)C(=O)NC(C(=O)NCCCCCC(N)=O)C(C)CC (stereo not drawn) [Compound A27] (Hexanoyl-Tyr(Val)-Ile-[Ahx]-NH2; configuration not given here) ?
Reply | Condition met

Ask | Please tell me: is the molecule CCCCCC(=O)NC(Cc1ccc(OC(=O)CN2CCN(C)CC2)cc1)C(=O)NC(C(=O)NCCCCCC(N)=O)C(C)CC (stereo not drawn) at or over 80% in terms of Caco-2 Cells Permeability Recovery Rate?
Reply | Condition met

Ask | Determine whether measured Caco-2 Cells Permeability Recovery Rate meets or exceeds 80% for CCCCCC(=O)NC(Cc1ccc(OC(=O)NCCN(C)C)cc1)C(=O)NC(C(=O)NCCCCCC(N)=O)C(C)CC (stereo not drawn)
Reply | Condition met

Ask | Item CCCCCC(=O)NC(Cc1ccc(OC(=O)CN2CCOCC2)cc1)C(=O)NC(C(=O)NCCCCCC(N)=O)C(C)CC (stereo not drawn) with Caco-2 Cells Permeability Recovery Rate of 80% or above?
Reply | Condition met

Ask | Textbook exercise: given the entry CCCCCC(=O)NC(Cc1ccc(OP(=O)(OCCN(C)C)OCCN(C)C)cc1)C(=O)NC(C(=O)NCCCCCC(N)=O)C(C)CC (stereo not drawn) , state whether its Caco-2 Cells Permeability Recovery Rate is greater than or equal to 80%.
Reply | Condition not met

Ask | Textbook exercise: given the entry CCCCCC(=O)NC(Cc1ccc(OC(=O)CN2CCCC2)cc1)C(=O)NC(C(=O)NCCCCCC(N)=O)C(C)CC (stereo not drawn) , state whether its Caco-2 Cells Permeability Recovery Rate is greater than or equal to 80%.
Reply | Condition not met

Ask | API: above_or_equal(metric=Caco-2 Cells Permeability Recovery Rate, cutoff=80%) for item CCCCCC(=O)NC(Cc1ccc(OP(=O)(O)O)cc1)C(=O)N[C@H](C(=O)NCCCCCC(N)=O)C(C)CC.N.N (stereo partly drawn) [Compound A29] (Hexanoyl-[ξpY]-[Ile(3ξ)]-[Ahx]-NH2)
Reply | Condition met

Ask | Record CCCCCC(=O)NC(Cc1ccc(OC(=O)N2CCN(C)CC2)cc1)C(=O)NC(C(=O)NCCCCCC(N)=O)C(C)CC (stereo not drawn) ; criterion: Caco-2 Cells Permeability Recovery Rate no lower than 80%. Met?
Reply | Condition not met
